All values here come from the supplement of paper PMC10883282.

test system: SK-ES-1; experiment: relative viability vs DMSO control (72 h) (fraction); higher = more viable cells; conditions: 1.111 µM
OBSERVED PROPERTY: relative viability
Give your answer as a number; write no unit.

Write down relative viability measured for item C=CC(=O)Nc1cccc(Nc2nc(Nc3ccc(N4CCN(C(C)=O)CC4)cc3OC)ncc2C(F)(F)F)c1
0.658

Annotate the compound Cc1nc(Nc2ncc(C(=O)Nc3c(C)cccc3Cl)s2)cc(N2CCN(CCO)CC2)n1 with its measured relative viability.
0.896

Return reported relative viability. Input compound: CCN(CCCOc1ccc2c(Nc3cc(CC(=O)Nc4cccc(F)c4)[nH]n3)ncnc2c1)CCOP(=O)(O)O
0.061

Please look at this compound and report its relative viability: COc1cc2nccc(Oc3ccc(NC(=O)NC4CC4)c(Cl)c3)c2cc1C(N)=O
0.791

Read off the recorded relative viability for N#CCC1(n2cc(-c3ncnc4[nH]ccc34)cn2)CN(C2CCN(C(=O)c3ccnc(C(F)(F)F)c3F)CC2)C1
0.972

State, in one line, measured relative viability of Cc1ccc(NC(=O)c2ccc(CN3CCN(C)CC3)cc2)cc1Nc1nccc(-c2cccnc2)n1
0.957

Return relative viability for the following compound: CN(C)C[C@@H]1CCn2cc(c3ccccc32)C2=C(C(=O)NC2=O)c2cn(c3ccccc23)CCO1
0.869

---

test system: HT1080; experiment: relative viability vs DMSO control (72 h) (fraction); higher = more viable cells; conditions: 0.01372 µM
OBSERVED PROPERTY: relative viability

Find the measured relative viability of Cc1ccc(C(=O)OCc2ccc([C@@H](CN)C(=O)Nc3ccc4cnccc4c3)cc2)c(C)c1 [Netarsudil] and report it.
1.03

Answer with the recorded relative viability of C=CC(=O)Nc1cc(Nc2nccc(-c3cn(C)c4ccccc34)n2)c(OC)cc1N(C)CCN(C)C [Osimertinib] only.
1.04

Answer with reported relative viability of COc1cc(Nc2c(C#N)cnc3cc(OCCCN4CCN(C)CC4)c(OC)cc23)c(Cl)cc1Cl [Bosutinib]
1.11

Quickly give me recorded relative viability for C1=N/C2=N/c3ccc(OCCN4CCCC4)c(c3)COC/C=C/COCc3cccc(c3)C(=C1)N2 [Pacritinib]
1.08

Determine from records and report relative viability for CN1CCN(CCOc2cc(OC3CCOCC3)c3c(Nc4c(Cl)ccc5c4OCO5)ncnc3c2)CC1 [Saracatinib]
1.02

Please indicate relative viability recorded for COc1cc(OC)cc(N(CCNC(C)C)c2ccc3ncc(-c4cnn(C)c4)nc3c2)c1 [Erdafitinib]
1.02

---

system: SW982; experiment: relative viability vs DMSO control (72 h) (fraction); higher = more viable cells; conditions: 3.333 µM
Y if relative viability is below 0.3. N if not; exact matches included in N.

Does the reported relative viability of COc1cc2c(Oc3ccc4[nH]c(C)cc4c3F)ccnc2cc1OCC1(N)CC1 stay below 0.3?
N

Is it true that relative viability reported for COc1cc2ncnc(Nc3cccc(Cl)c3F)c2cc1OC(=O)N1CCN(C)C[C@H]1C is less than 0.3?
N

Bench note: check whether CN(C)C[C@@H]1CCn2cc(c3ccccc32)C2=C(C(=O)NC2=O)c2cn(c3ccccc23)CCO1 shows relative viability below 0.3
N

Could you please tell me whether relative viability recorded for Cc1cc(Nc2ncc(Cl)c(Nc3ccccc3S(=O)(=O)C(C)C)n2)c(OC(C)C)cc1C1CCNCC1 is less than 0.3?
N

Say whether its relative viability is strictly beneath 0.3. Entry: Cc1cn(-c2cc(NC(=O)c3ccc(C)c(Nc4nccc(-c5cnccn5)n4)c3)cc(C(F)(F)F)c2)cn1
N

Below 0.3 on relative viability? Entry C=CC(=O)Nc1cc(Nc2nccc(-c3cn(C)c4ccccc34)n2)c(OC)cc1N(C)CCN(C)C
N

Below 0.3 on relative viability? Entry COc1cc2ncnc(Nc3ccc(F)c(Cl)c3)c2cc1NC(=O)/C=C/CN1CCCCC1
Y

Just wondering, is relative viability of C1=N/C2=N/c3ccc(OCCN4CCCC4)c(c3)COC/C=C/COCc3cccc(c3)C(=C1)N2 below 0.3?
Y

Is it true that relative viability reported for C[C@@H](Oc1cc(-c2cnn(C3CCNCC3)c2)cnc1N)c1c(Cl)ccc(F)c1Cl is less than 0.3?
Y

Is 0.3 strictly greater than the molecule's reported relative viability? molecule: C[C@@H]1COC(Nc2ccc3ncnc(Nc4ccc(OCc5nccs5)c(Cl)c4)c3c2)=N1
N
